Tested on: Escherichia coli TOP10
ASSAY_NOTES: shrunken log2 fold change of peptide-encoding DNA abundance (4.5 h post-induction vs induction); higher = less antimicrobial activity (less host growth inhibition)
TEST_PARAMETERS: time post-induction: 4.5 h; library: site-saturation at positions 5, 18, 19, 20
sequences and their reported shrunken log2 fold change
OBSERVABLE: shrunken log2 fold change

1) RRIRIRPPRLPRPRPRPYMRPRP    0.0163
2) RRIRYRPPRLPRPRPRPHRSPRP    -0.017
3) RRIRERPPRLPRPRPRPWPQPRP    -0.0216
4) RRIRFRPPRLPRPRPRPNERPRP    0.047
5) RRIRWRPPRLPRPRPRPHPMPRP    0.408
6) RRIRKRPPRLPRPRPRPKPSPRP    0.743
7) RRIRVRPPRLPRPRPRPTTYPRP    -0.465
8) RRIRQRPPRLPRPRPRPEDKPRP    0.0591
9) RRIRDRPPRLPRPRPRPEQNPRP    0.517
10) RRIRHRPPRLPRPRPRPATWPRP    0.222
11) RRIRRRPPRLPRPRPRPKSCPRP    0.0766
12) RRIRCRPPRLPRPRPRPRRKPRP    0.399
13) RRIRMRPPRLPRPRPRPPNSPRP    0.128
14) RRIRARPPRLPRPRPRPVFAPRP    0.561
15) RRIRFRPPRLPRPRPRPCIFPRP    -0.361
16) RRIRHRPPRLPRPRPRPHDDPRP    -0.0997
17) RRIRKRPPRLPRPRPRPQGCPRP    0.421
18) RRIRCRPPRLPRPRPRPVNLPRP    2.47
19) RRIRPRPPRLPRPRPRPIWPPRP    0.302
20) RRIRIRPPRLPRPRPRPFTFPRP    -0.148
21) RRIRRRPPRLPRPRPRPATGPRP    0.222
22) RRIRARPPRLPRPRPRPYCLPRP    -0.729
23) RRIRLRPPRLPRPRPRPPAWPRP    0.98
24) RRIRSRPPRLPRPRPRPNYKPRP    -0.546
25) RRIRARPPRLPRPRPRPIGWPRP    0.488
26) RRIRFRPPRLPRPRPRPTRPPRP    0.776
27) RRIRFRPPRLPRPRPRPPSTPRP    0.342
28) RRIRARPPRLPRPRPRPSNSPRP    -0.156
29) RRIRFRPPRLPRPRPRPQFMPRP    -1.06
30) RRIRVRPPRLPRPRPRPAVCPRP    0.258
31) RRIRNRPPRLPRPRPRPWSHPRP    -0.17
32) RRIRSRPPRLPRPRPRPWRFPRP    0.566
33) RRIRTRPPRLPRPRPRPFPYPRP    -0.00797
34) RRIRPRPPRLPRPRPRPGVFPRP    0.144
35) RRIRNRPPRLPRPRPRPFDRPRP    0.0368
36) RRIRTRPPRLPRPRPRPNFWPRP    0.31
37) RRIRIRPPRLPRPRPRPSKGPRP    -0.142
38) RRIRWRPPRLPRPRPRPFTEPRP    -0.478
39) RRIRMRPPRLPRPRPRPIIRPRP    0.0027
40) RRIRPRPPRLPRPRPRPMTGPRP    -0.239
41) RRIRRRPPRLPRPRPRPKSPPRP    0.189
42) RRIRERPPRLPRPRPRPQMWPRP    -0.0958
43) RRIRKRPPRLPRPRPRPFVQPRP    0.034
44) RRIRARPPRLPRPRPRPWYAPRP    -0.307
45) RRIRYRPPRLPRPRPRPEFSPRP    -0.307
46) RRIRIRPPRLPRPRPRPFDKPRP    -0.177
47) RRIRFRPPRLPRPRPRPPDRPRP    0.128
48) RRIRRRPPRLPRPRPRPSHRPRP    -0.00626
49) RRIRYRPPRLPRPRPRPPGFPRP    0.184
50) RRIRIRPPRLPRPRPRPKPDPRP    0.528
51) RRIRWRPPRLPRPRPRPYWMPRP    -0.265

* * *

Test system: Escherichia coli TOP10
ASSAY_NOTES: shrunken log2 fold change of peptide-encoding DNA abundance (4.5 h post-induction vs induction); higher = less antimicrobial activity (less host growth inhibition)
TEST_PARAMETERS: time post-induction: 4.5 h; library: site-saturation at positions 5, 18, 19, 20
OBSERVABLE: shrunken log2 fold change

1) RRIRDRPPRLPRPRPRPFLIPRP    0.0926
2) RRIRARPPRLPRPRPRPEMTPRP    1.23
3) RRIRMRPPRLPRPRPRPKCTPRP    0.995
4) RRIRIRPPRLPRPRPRPVRIPRP    0.154
5) RRIRNRPPRLPRPRPRPWFEPRP    -0.879
6) RRIRMRPPRLPRPRPRPSGFPRP    0.411
7) RRIRVRPPRLPRPRPRPPVRPRP    0.267
8) RRIRNRPPRLPRPRPRPQQWPRP    -0.0346
9) RRIRQRPPRLPRPRPRPCPQPRP    -0.153
10) RRIRWRPPRLPRPRPRPYKGPRP    -0.0487
11) RRIRMRPPRLPRPRPRPCKNPRP    4.11
12) RRIRCRPPRLPRPRPRPVSIPRP    -0.549
13) RRIRSRPPRLPRPRPRPQWSPRP    -0.176
14) RRIRNRPPRLPRPRPRPSQPPRP    -0.0682
15) RRIRRRPPRLPRPRPRPLGDPRP    0.682
16) RRIRPRPPRLPRPRPRPIGHPRP    -0.0228
17) RRIRWRPPRLPRPRPRPGWRPRP    0.617
18) RRIRFRPPRLPRPRPRPRMTPRP    0.128
19) RRIRTRPPRLPRPRPRPDANPRP    -0.103
20) RRIRVRPPRLPRPRPRPVMFPRP    -0.305
21) RRIRVRPPRLPRPRPRPYQDPRP    -1.42
22) RRIRGRPPRLPRPRPRPIMTPRP    2.36
23) RRIRVRPPRLPRPRPRPWWTPRP    -0.0418
24) RRIRCRPPRLPRPRPRPIKYPRP    -0.608

* * *

Tested on: Escherichia coli TOP10;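 also: peptides expressed intracellularly from a pBAD plasmid library in pooled LB shake-flask culture, induced with 0.3% L-arabinose, DNA abundance read by NGS, three biological replicates, DESeq2 with apeglm shrinkage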
ASSAY_NOTES: shrunken log2 fold change of peptide-encoding DNA abundance (4.5 h post-induction vs induction); higher = less antimicrobial activity (less host growth inhibition)
TEST_PARAMETERS: time post-induction: 4.5 h; library: site-saturation at positions 5, 18, 19, 20
OBSERVABLE: shrunken log2 fold change

1. RRIRKRPPRLPRPRPRPLAMPRP    0.486
2. RRIRPRPPRLPRPRPRPWTYPRP    -0.0785
3. RRIRGRPPRLPRPRPRPFQCPRP    -0.0282
4. RRIRLRPPRLPRPRPRPMAIPRP    0.11
5. RRIRIRPPRLPRPRPRPAPAPRP    0.31
6. RRIRVRPPRLPRPRPRPPEWPRP    -0.00654
7. RRIRIRPPRLPRPRPRPDKEPRP    -0.0239
8. RRIRKRPPRLPRPRPRPLGSPRP    -0.115
9. RRIRSRPPRLPRPRPRPLTHPRP    -0.569
10. RRIRQRPPRLPRPRPRPCTFPRP    -0.121
11. RRIRSRPPRLPRPRPRPMNNPRP    -0.479
12. RRIRLRPPRLPRPRPRPWTNPRP    0.0169
13. RRIRFRPPRLPRPRPRPTVAPRP    0.226
14. RRIRWRPPRLPRPRPRPTELPRP    0.135
15. RRIRPRPPRLPRPRPRPPFVPRP    0.139
16. RRIRYRPPRLPRPRPRPKGNPRP    -0.423
17. RRIRLRPPRLPRPRPRPQRAPRP    0.309
18. RRIRKRPPRLPRPRPRPWAGPRP    0.115
19. RRIRKRPPRLPRPRPRPQHIPRP    -0.243
20. RRIRYRPPRLPRPRPRPDCRPRP    -0.363
21. RRIRNRPPRLPRPRPRPCNMPRP    -0.0735
22. RRIRERPPRLPRPRPRPCDCPRP    0.00557
23. RRIRPRPPRLPRPRPRPSSLPRP    0.0404
24. RRIRIRPPRLPRPRPRPFCLPRP    -0.739
25. RRIRFRPPRLPRPRPRPPQTPRP    0.473
26. RRIRLRPPRLPRPRPRPFKQPRP    -0.0215
27. RRIRMRPPRLPRPRPRPSEVPRP    0.159
28. RRIRARPPRLPRPRPRPQQNPRP    0.166
29. RRIRDRPPRLPRPRPRPYFWPRP    -0.0487
30. RRIRNRPPRLPRPRPRPHDRPRP    -0.146
31. RRIRERPPRLPRPRPRPFCWPRP    0.0996
32. RRIRNRPPRLPRPRPRPGFVPRP    0.135
33. RRIRKRPPRLPRPRPRPPVEPRP    0.13
34. RRIRERPPRLPRPRPRPAQNPRP    0.269
35. RRIRARPPRLPRPRPRPYQMPRP    -0.396
36. RRIRTRPPRLPRPRPRPICNPRP    -0.00195
37. RRIRHRPPRLPRPRPRPYHRPRP    -0.00968
38. RRIRPRPPRLPRPRPRPIWYPRP    -0.0201
39. RRIRMRPPRLPRPRPRPEINPRP    2.85
40. RRIRQRPPRLPRPRPRPCPLPRP    -0.0641
41. RRIRLRPPRLPRPRPRPAKWPRP    0.388
42. RRIRTRPPRLPRPRPRPGALPRP    0.00437
43. RRIRFRPPRLPRPRPRPCHPPRP    1.35
44. RRIRQRPPRLPRPRPRPKVPPRP    0.105
45. RRIRVRPPRLPRPRPRPLASPRP    -0.214
46. RRIRLRPPRLPRPRPRPHPLPRP    -0.152
